# Tested on: Fibroblast
# protocol.summary: Multiplex assay against human fibroblast
# Assay type: toxicity, cell-based
# measurement.conditions: 48 h, 10 µM, compound concentration 10 uM, replicate 2
measure: Population Healthy Nuclei (%)
Give just the number in %; leave the unit off.

// worked examples, Population Healthy Nuclei (%) included
Cl.Cl.Nc1ncnc2c1c(-c1cccc(OCc3ccccc3)c1)cn2[C@H]1C[C@@H](CN2CCC2)C1	34
CCn1c(-c2nonc2N)nc2cnc(Oc3cccc(NC(=O)c4ccc(OCCN5CCOCC5)cc4)c3)cc21 [GSK-269962A]	58
CNc1oc(-c2cccc3ccccc23)nc1C#N	23

Lab note: next compound to report on.
I'd like to know its Population Healthy Nuclei (%). The compound in question is CCC(=O)O[C@]1(C(=O)SCF)[C@H](C)C[C@H]2[C@@H]3C[C@H](F)C4=CC(=O)C=C[C@]4(C)[C@@]3(F)[C@@H](O)C[C@@]21C [FLUTICASONE PROPIONATE] 66
